This collection of values is drawn from patent US20240408169A1.

Tested on: NCI-H1048 cells
assay remarks: MTT proliferation assay, NCI-H1048;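 further: Dose-response in 96-well plates over 8 or 10 concentration points, with exposure spanning 3-4 cell doublings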
Type: cell-based
experimental setup: 5 days compound exposure, 1:3 serial dilution starting at 10 μM
*1 amine or outer side, *2 acyl side, *3 side chain or, on linkers, in order; H or OH if unused. Where a SMILES comes first, the peptide text is derived from it. Bridges are numbered along the chain shown (N, C = ends). [ ]: non-standard residue; d: D form. The star is where a group is joined. X142 = CN([C@@H](Cc1cc(Cl)ccc1C1=CCN(S(C)(=O)=O)CC1)C(=O)[*:2])[*:1]; X12 = CN1CCN(c2ccc(-c3ccc(F)cc3C[C@@H](C(=O)[*:2])N(C)[*:1])cc2)CC1; NMehhhLys(Me) = CN([C@@H](CCCCCCCN(C)[*:3])C(=O)[*:2])[*:1]; X22 = CN([C@@H](Cc1cc(Cl)ccc1-c1cnn(C)c1)C(=O)[*:2])[*:1]; NMe3Pal(2-OcPr,5-F) = CN[C@@H](Cc1cc(F)cnc1OC1CC1)C(=O)O; NMe(hhhLys) = CN([C@@H](CCCCCCCN[*:3])C(=O)[*:2])[*:1]; Cyclobutanecarbonyl(1-CF3) = O=C(C1(C(F)(F)F)CCC1)*; cBuCO(3,3-F2-1-CF3) = O=C(C1(C(F)(F)F)CC(F)(F)C1)*; Pro(trans-4-F) = O=C(O)[C@@H]1C[C@@H](F)CN1; Gly(cPr) = N[C@H](C(=O)O)C1CC1
quantity measured: GI50 (nM)
Report only the number, with the unit nM understood.

Task: Which GI50 is reported for this compound? CC(C)C[C@@H]1NC(=O)[C@@H](N(C)C(=O)[C@@H](NC(=O)[C@@H]2C[C@@H](F)CN2C(=O)C2(C(F)(F)F)CC(F)(F)C2)C2CC2)CCCCCCCNC(=O)[C@H](Cc2cc(Cl)ccc2C2=CCN(S(C)(=O)=O)CC2)N(C)C1=O [Example 284] ({cBuCO(3,3-F2-1-CF3)}-[Pro(trans-4-F)][Gly(cPr)][NMe(hhhLys)]L[X142]; lactam 3-C)
Output: 10

Task: Form field: reported GI50 of CC(C)C[C@@H]1NC(=O)[C@@H](N(C)C(=O)[C@@H](NC(=O)[C@@H]2CCCN2C(=O)C2(C(F)(F)F)CC(F)(F)C2)C2CC2)CCCCCCCN(C)C(=O)[C@H](Cc2cc(Cl)ccc2-c2cnn(C)c2)N(C)C1=O [Example 77] ({cBuCO(3,3-F2-1-CF3)}-P[Gly(cPr)][NMehhhLys(Me)]L[X22]; lactam 3-C)
Output: 60

Task: What GI50 value was documented for this compound, "CC(C)C[C@@H]1NC(=O)[C@@H](N(C)C(=O)[C@@H](NC(=O)[C@@H]2C[C@@H](F)CN2C(=O)C2(C(F)(F)F)CC(F)(F)C2)C2CC2)CC=CCCCCN(C)C(=O)[C@H](Cc2cc(F)ccc2-c2cnn(C3CC3)c2)N(C)C1=O" ?
Output: 20

Task: Entry under review: CC(C)C[C@@H]1NC(=O)[C@@H](N(C)C(=O)[C@@H](NC(=O)[C@@H]2C[C@@H](F)CN2C(=O)C2(C(F)(F)F)CCC2)C2CC2)CCCCCCCNC(=O)[C@H](Cc2cc(F)cnc2OC2CC2)N(C)C1=O [Example 134] ({Cyclobutanecarbonyl(1-CF3)}-[Pro(trans-4-F)][Gly(cPr)][NMe(hhhLys)]L[NMe3Pal(2-OcPr,5-F)]; lactam 3-C) . Reported GI50?
Output: 30

Task: Looking for the measured GI50 of CC(C)C[C@@H]1NC(=O)[C@@H](N(C)C(=O)[C@@H](NC(=O)[C@@H]2C[C@@H](F)CN2C(=O)C2(C(F)(F)F)CC(F)(F)C2)C2CC2)CCCCCCCN(C)C(=O)[C@H](Cc2cc(F)ccc2-c2ccc(N3CCN(C)CC3)cc2)N(C)C1=O [Example 353] ({cBuCO(3,3-F2-1-CF3)}-[Pro(trans-4-F)][Gly(cPr)][NMehhhLys(Me)]L[X12]; lactam 3-C) , can you help?
Output: 10

Task: Param item = "CC(C)C[C@@H]1NC(=O)[C@@H](N(C)C(=O)[C@@H](NC(=O)[C@@H]2C[C@@H](F)CN2C(=O)C2(C(F)(F)F)CC(F)(F)C2)C2CC2)CC=CCCCCNC(=O)[C@H](Cc2cc(Cl)ccc2C2=CCN(C(=O)C3CC3)CC2)N(C)C1=O" ; retrieve measured GI50.
Output: 310
